For each of the molecules below, state its melting point.

Example results:
[[record]]
item_smiles = "CC1=C(C(=O)OC(C)(C)C)C(c2cccc(Br)c2)C(C(=O)OC(C)(C)C)=C(C)N1"
assay_value = "195 to 196 °C"

[[record]]
item_smiles = "CC1=C(C(=O)OC(C)(C)C)C(c2cccc(Cl)c2Cl)C(C(=O)OC(C)(C)C)=C(C)N1"
assay_value = "144 to 145 °C"

[[record]]
item_smiles = "CC1=C(C(=O)OC(C)(C)C)C(c2cccc(F)c2F)C(C(=O)OC(C)(C)C)=C(C)N1"
assay_value = "192 to 194 °C"

[[record]]
item_smiles = "CC1=C(C(=O)OC(C)(C)C)C(c2ccccc2[N+](=O)[O-])C(C(=O)OC(C)(C)C)=C(C)N1"
assay_value = "159 to 161 °C"

[[record]]
item_smiles = "CC(=O)C1=C(C)NC(C)=C(C(C)=O)C1c1ccccc1Cl"
assay_value = "196 to 197 °C"

[[record]]
item_smiles = "CCOC(=O)C1=C(C)NC(C)=C(C(=O)OCC)C1c1ccc(Cl)cc1"
assay_value = "151 to 152 °C"

[[record]]
item_smiles = "CCOC(=O)C1=C(C)NC(C)=C(C(=O)OCC)C1c1cc(Br)ccc1F"
assay_value = "118 to 119 °C"


Consider the additional molecule presented here.
Look up melting point: CC1=C(C(=O)OC(C)(C)C)C(c2ccc(F)c(Br)c2)C(C(=O)OC(C)(C)C)=C(C)N1 171 to 172 °C

---

For each of the compounds below, state its melting point.

Example results:
[[record]]
compound = "COC(=O)C1=C(C)NC(C)=C(C(C)=O)C1c1ccccc1Br (stereo not shown)"
readout_kind = "melting point"
assay_value = "146 to 148 °C"

[[record]]
compound = "CC1=C(C(=O)OC(C)(C)C)C(c2cccc(Cl)c2)C(C(=O)OC(C)(C)C)=C(C)N1"
readout_kind = "melting point"
assay_value = "189.5 to 190.5 °C"

[[record]]
compound = "CC1=C(C(=O)OC(C)(C)C)C(c2ccc(F)cc2)C(C(=O)OC(C)(C)C)=C(C)N1"
readout_kind = "melting point"
assay_value = "149 to 150 °C"

[[record]]
compound = "CCOC(=O)C1=C(C)NC(C)=C(C(=O)OCC)C1c1ccccc1[N+](=O)[O-]"
readout_kind = "melting point"
assay_value = "120 to 121 °C"

[[record]]
compound = "CC1=C(C(=O)OC(C)(C)C)C(c2cccc(F)c2)C(C(=O)OC(C)(C)C)=C(C)N1"
readout_kind = "melting point"
assay_value = "178 to 179 °C"

[[record]]
compound = "COCCOC(=O)C1=C(C)NC(C)=C(C(=O)OCCOC)C1c1ccc(Br)cc1"
readout_kind = "melting point"
assay_value = "116 to 117 °C"


Batch of 8 compounds: report melting point for each.
1. COC(=O)C1=C(C)NC(C)=C(C(=O)OC)C1c1ccccc1Cl
2. CC1=C(C(=O)OC(C)(C)C)C(c2ccc(Cl)cc2)C(C(=O)OC(C)(C)C)=C(C)N1
3. CC1=C(C(=O)OC(C)(C)C)C(c2cc(Cl)ccc2Cl)C(C(=O)OC(C)(C)C)=C(C)N1
4. CCOC(=O)C1=C(C)NC(C)=C(C(=O)OCC)C1c1ccccc1Br
5. CC1=C(C(=O)OC(C)(C)C)C(c2ccccc2F)C(C(=O)OC(C)(C)C)=C(C)N1
6. COCCOC(=O)C1=C(C)NC(C)=C(C(=O)OCCOC)C1c1cccc(Br)c1
7. COC(=O)C1=C(C)NC(C)=C(C(=O)OC)C1c1ccccc1Br
8. CC1=C(C(=O)OC(C)(C)C)C(c2ccccc2Br)C(C(=O)OC(C)(C)C)=C(C)N1

1. 188 to 189 °C
2. 191.5 to 192.5 °C
3. 181 to 183 °C
4. 144 to 145 °C
5. 201 to 202 °C
6. 124.5 to 125.5 °C
7. 164 to 165 °C
8. 162 to 164 °C

Batch of 5 compounds: report melting point for each.
1. C=CCOC(=O)C1=C(C)NC(C)=C(C(=O)OCC=C)C1c1ccc(Br)cc1
2. CCOC(=O)C1=C(C)NC(C)=C(C(=O)OCC)C1c1cccc(F)c1F
3. CC1=C(C(=O)OC(C)(C)C)C(c2ccc(Br)cc2)C(C(=O)OC(C)(C)C)=C(C)N1
4. CCOC(=O)C1=C(C)NC(C)=C(C(=O)OCC)C1c1ccc(F)c(Br)c1
5. COCC1=C(C(=O)OC)C(c2ccc(Br)cc2)C(C(=O)OC)=C(COC)N1

1. 130 to 131 °C
2. 161 to 162 °C
3. 206 to 207 °C
4. 118 to 119 °C
5. 162 to 163 °C
